The reported numbers originate from the NIST ThermoML archive (doi:10.1021/je020206a).

Experiment: wn = mass fraction of the nth substance listed
Details: 308.15 K; 101.3 kPa; Liquid; w1 = 0.3
Examples of compounds with documented viscosity follow.
Report the value in mPa·s with no unit label.

{"compound": "OCCNCCO [diethanolamine] + O", "unit text": "mPa·s", "recorded result": 2.51}
{"compound": "NCCO [2-aminoethan-1-ol] + O", "unit text": "mPa·s", "recorded result": 1.85}
{"compound": "CC(C)(N)CO [2-amino-2-methylpropan-1-ol] + O", "unit text": "mPa·s", "recorded result": 2.8}

Read the next record carefully.
## Task Find the measured viscosity of CN(CCO)CCO [N-methyldiethanolamine] + O and report it.
## Result 2.27
